# assayName: HUVEC growth inhibition – cell-based, human, primary screen (AID 575);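 further: 100% = median of untreated cell wells with 0.1% DMSO on each plate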
# conditionDetails: HUVEC proliferation, CellTiter-Glo luminescence, 72 h; at 10 µM; stronger effect = lower value
Active and inactive are the calls of the source.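 How the source made its calls: active means viability at or below 30% in both replicate assays; inconclusive means viability at or below 30% in just one of the two assays; inactive means the rest.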
assayMetric: viability

q: Determine its reported viability: COc1ccc(NC(=O)C(C)Oc2ccc(/C(C)=N\O)cc2)cc1 (stereo not drawn)
a: 91.9% (inactive)

q: Return value of viability for input CCOc1ccc2nc(SCC(=O)N3CCCCCC3)c(C#N)cc2c1 , no commentary.
a: 87.5% (inactive)

q: Note viability for the compound shown: COc1ccccc1N1CCN(C(=O)c2ccc(S(=O)(=O)N3CCCCCC3)cc2)CC1
a: 89.4% (inactive)

* * *

# targetDesc: Receptor tyrosine-protein kinase erbB-2 (Homo sapiens) (UniProt P04626)
# Sequence (P04626 whole entry, looked up): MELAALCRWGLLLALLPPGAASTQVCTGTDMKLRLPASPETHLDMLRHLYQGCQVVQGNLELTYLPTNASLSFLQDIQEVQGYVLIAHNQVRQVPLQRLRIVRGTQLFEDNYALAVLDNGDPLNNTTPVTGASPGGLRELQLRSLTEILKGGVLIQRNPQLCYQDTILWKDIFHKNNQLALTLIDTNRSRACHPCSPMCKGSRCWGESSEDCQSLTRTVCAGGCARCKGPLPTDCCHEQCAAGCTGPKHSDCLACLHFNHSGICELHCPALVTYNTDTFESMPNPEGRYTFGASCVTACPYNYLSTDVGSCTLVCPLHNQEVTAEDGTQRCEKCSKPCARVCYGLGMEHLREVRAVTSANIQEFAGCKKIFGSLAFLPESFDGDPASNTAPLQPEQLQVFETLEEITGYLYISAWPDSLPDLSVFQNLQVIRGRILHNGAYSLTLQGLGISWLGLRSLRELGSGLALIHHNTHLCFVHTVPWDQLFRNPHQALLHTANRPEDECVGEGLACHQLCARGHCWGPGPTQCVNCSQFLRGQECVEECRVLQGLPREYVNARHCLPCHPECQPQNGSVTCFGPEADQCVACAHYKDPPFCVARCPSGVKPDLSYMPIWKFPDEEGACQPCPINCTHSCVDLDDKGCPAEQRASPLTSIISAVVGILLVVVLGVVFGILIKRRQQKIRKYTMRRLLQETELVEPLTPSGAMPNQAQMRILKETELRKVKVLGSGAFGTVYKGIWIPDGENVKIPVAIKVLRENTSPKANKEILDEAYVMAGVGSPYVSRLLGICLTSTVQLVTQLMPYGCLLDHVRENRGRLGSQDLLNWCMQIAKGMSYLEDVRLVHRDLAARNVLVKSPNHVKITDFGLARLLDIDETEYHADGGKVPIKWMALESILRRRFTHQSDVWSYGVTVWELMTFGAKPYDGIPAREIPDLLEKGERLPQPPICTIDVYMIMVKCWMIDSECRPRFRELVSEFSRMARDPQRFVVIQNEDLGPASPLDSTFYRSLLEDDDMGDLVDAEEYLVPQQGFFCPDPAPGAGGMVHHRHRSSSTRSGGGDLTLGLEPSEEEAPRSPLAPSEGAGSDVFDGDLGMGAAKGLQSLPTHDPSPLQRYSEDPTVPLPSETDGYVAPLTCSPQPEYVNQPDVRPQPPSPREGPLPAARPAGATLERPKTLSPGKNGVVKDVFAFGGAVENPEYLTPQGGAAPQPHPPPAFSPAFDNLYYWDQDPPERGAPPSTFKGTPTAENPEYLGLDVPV
# assayName: reducers of endogenous Her2 protein level, primary screen, SKBR3 breast tumor cells, AlphaScreen, ATP viability (AID 461);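 further: lower value means less Her2 protein in the cells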
# conditionDetails: 18-24 h, at 10 µM, stronger effect = lower value
Could you mark each record Satisfied if its Her2 level falls strictly under 90%, and Not satisfied if it equals or exceeds it?

q: # check: Her2 level < 90% for O=C(O)c1cc2nc(-c3ccc(F)cc3)cc(C(F)(F)F)n2n1
a: Not satisfied

q: Consider Cc1ccc(-c2cc(C(=O)NCCN3CCOCC3)no2)cc1 . Does its Her2 level lie strictly below 90%?
a: Not satisfied

q: I wonder whether COc1ccc(Cn2nnnc2C(c2cccs2)N2CCOCC2)cc1 (stereo not drawn) has Her2 level below 90%. Can you tell?
a: Not satisfied

q: Threshold test, Her2 level < 90%: CCOc1ccc2c(c1)sc1nc(C(=O)OC)cc(=O)n12
a: Satisfied

q: Confirm or reject: Her2 level of Cc1nnc(C)n1/N=C/c1cccc(Oc2ccccc2)c1 lies strictly below 90%
a: Satisfied

q: Record Cc1ccc2[nH]c3c(N4CCOCC4)ncnc3c2c1 : is its Her2 level strictly below 90%?
a: Not satisfied

q: Strictly below 90%: is that where Her2 level of CCn1c(CC(=O)Nc2cccc(OC)c2)nnc1SCC(=O)Nc1nccs1 sits?
a: Not satisfied

q: Her2 level strictly < 90% for this compound? CN1CCN(CC(=O)Nc2ccc(Cl)cc2Cl)CC1
a: Not satisfied

q: Confirm or reject: Her2 level of CN(Cc1ccccc1)C(=O)c1ccc2c(c1)OCO2 lies strictly below 90%
a: Not satisfied

q: Criterion: Her2 level strictly below 90%. Is it met by CCN(C(=O)c1cc(Cl)ccc1OC)C1CCCCC1 ?
a: Not satisfied

q: Please check: Her2 level for O=C(CN1CCC(NC(=O)c2ccc(F)cc2)CC1)NCc1ccccc1F , strictly under 90% or not?
a: Not satisfied

q: Threshold test, Her2 level < 90%: CCn1c(C)nc2cc(C(=O)OCCC(F)(F)F)ccc21
a: Not satisfied

q: Please state whether Her2 level is below 90% for CN(c1ccccc1)S(=O)(=O)c1ccc(C(=O)OCC(=O)NCc2ccco2)cc1
a: Not satisfied

q: Lab note: confirm whether the reported Her2 level for this compound is below 90%, equality not counting. compound: COc1ccc(OC)c(C(=O)COC(=O)c2cc(C)oc2C)c1
a: Satisfied

q: Is 90% strictly greater than the compound's reported Her2 level? compound: CC1CCCN(C(=O)c2cc(F)c(F)cc2Cl)C1 (stereo not drawn)
a: Not satisfied

q: Identify whether the compound CCCc1nnc2n1N=C(c1ccc(OC)c(OC)c1)CS2 records Her2 level below 90%.
a: Satisfied

q: Problem: For the compound CSc1nnc(-c2ccc(NC(=O)CCc3ccccc3)cc2)n1C , is Her2 level under 90%?
a: Satisfied

q: Consider the compound COc1ccc(CCNC(=O)C2=COCCO2)cc1 . Is its Her2 level strictly less than 90%?
a: Not satisfied

q: # TODO verify Her2 level < 90% strictly for this compound: CCN(CC)S(=O)(=O)c1cccc2c(N(C)C)cccc12
a: Not satisfied

q: Problem: For the compound CN(c1ccccc1)S(=O)(=O)c1ccc(C(=O)OCC(=O)N2CCOCC2)cc1 , is Her2 level under 90%?
a: Satisfied

q: Say whether its Her2 level is strictly beneath 90%. Entry: O=c1[nH]c2sc3c(c2c2nncn12)CCCC3
a: Not satisfied

q: Determine if O=C(CCN1C(=O)c2ccccc2C1=O)OCN1C(=O)c2ccccc2C1=O shows Her2 level strictly lower than 90%.
a: Not satisfied

q: Does O=C(NCC(c1cccnc1)N1CCOCC1)c1ccco1 (stereo not drawn) have Her2 level strictly under 90%?
a: Satisfied

q: Take the compound O=S(=O)(Cc1ccccc1)N1CCCCCC1 and say whether its Her2 level is less than 90%.
a: Satisfied

q: Quick check: does CCCCc1nccn1CCn1ccnc1CCCC have Her2 level under 90%?
a: Satisfied

q: Given Cc1cc(C)n(CC2CC(=O)N(c3ccc(Cl)c(Cl)c3)C2=O)n1 (stereo not drawn) , is recorded Her2 level strictly lower than 90%?
a: Not satisfied

q: Please let me know if Cc1ccc(S(=O)(=O)CC(=O)N2CCCCCC2)cc1 shows Her2 level below 90%.
a: Not satisfied

q: Is Her2 level strictly under 90% for the entry CC(=O)N1CCN=C1SCc1c(F)cccc1Cl ?
a: Not satisfied

q: Consider the compound COc1cccc(Nc2cc(C)nc3ccccc23)c1 . Is its Her2 level strictly less than 90%?
a: Satisfied

* * *

# assayName: reversal of MRP1-mediated doxorubicin resistance, pilot screen, H69AR cells, doxorubicin co-treatment (AID 601)
# conditionDetails: H69AR cells + 2 uM doxorubicin, CellTiter-Glo, 72 h; measured here: viability with 2 uM doxorubicin; at 10 µM; stronger effect = lower value
assayMetric: viability
Answer format reminder: number followed by unit.

q: Read off the recorded viability for C=CC(O)(C#CCN(CC)CC)c1ccccc1 (configuration not stated)
a: 89.9%

q: Give viability for the following compound: Cc1ccc(NC(=O)c2ccccc2O)cc1
a: 89.4%

q: Supply recorded viability for CCc1cccc2c(=O)c(C(=O)NCCN3CCOCC3)c[nH]c12 here.
a: 90%

q: Assign viability to the following record: COCCSc1nnc(NC(=O)Cc2ccccc2OC)s1
a: 91%

q: Give reported viability value for CCOC(=O)CSc1nc2cccnc2n1-c1ccc(F)cc1
a: 92.4%

q: Please report the measured viability for Cn1c(=O)c(-c2ccccc2)nn2c3ccccc3nc12
a: 91.6%

q: Given the compound O=S(=O)(NCC1CCCO1)c1cccc(C(F)(F)F)c1 (configuration not stated) , write its reported viability.
a: 88.4%

* * *

# assayName: reversal of MRP1-mediated doxorubicin resistance, pilot screen, H69AR cells, doxorubicin co-treatment (AID 601)
# conditionDetails: H69AR cells, CellTiter-Glo, 72 h; compound alone cytotoxicity; at 10 µM
Binarize viability at 90%; below is 1 (yes), at or above is 0 (no).

q: Strictly below 90% in viability? O=S(=O)(c1ccccc1)c1nc(-c2ccco2)oc1NCCCN1CCOCC1
a: 0 (no)

q: # check: viability < 90% for CCn1c(SCC(=O)Nc2ccc(C(C)=O)cc2)nc2ccccc21
a: 1 (yes)

q: Determine if CCn1c(=O)cc(OCC(=O)NCCCN2CC(C)CC(C)C2)c2ccccc21 (centres undefined) shows viability strictly lower than 90%.
a: 1 (yes)

q: I wonder whether COCCn1c(COc2ccc(Cl)cc2)nnc1SCC(N)=O has viability below 90%. Can you tell?
a: 0 (no)

* * *

# assayName: growth inhibitors of H69AR lung tumor, primary screen, human, duplicate replicates (AID 580);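 further: 100% = mean luminescence of untreated wells and 0% = no signal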
# conditionDetails: H69AR lung tumor cells viability, ATP luminescence, 72 h; at 10 µM; stronger effect = lower value
I'd appreciate it if you could supply viability values for the items below.
Write the answer as a number in %, unit excluded.

q: Provide only the value of recorded viability for O=C(Nc1cccnc1)c1cccc(NC(=O)c2ccco2)c1
a: 89.9

q: Given the compound COc1ccc(N2C(=O)CC(NC3CC3)C2=O)cc1 (centres undefined) , write its reported viability.
a: 91.2

q: Please look at this compound and report its viability: Cc1ccc(O)c(NC(=O)COc2cc(C)ccc2C)c1
a: 89.4

q: Respond only with viability recorded for CCCCc1nccn1CCn1ccnc1CCCC
a: 85.8

q: Fill in reported viability for this entry: COc1ccc(C)cc1NC(=O)c1nnn(Cc2cccc(F)c2)c1N
a: 82.7

q: Determine its reported viability: O=c1c2c(nc3nc(COc4ccccc4)[nH]n13)CCC2
a: 101

q: For the compound CC1=C(C)[N+](=O)C2CCCCC2N1[O-] (centres undefined) , give its measured viability value.
a: 94.4

q: Given Cc1cc(C)c2c(n1)sc1c(N3CCOCC3)ncnc12 , respond with its viability.
a: 76.6

q: Tell me measured viability for COc1ccccc1OCc1ccc(C(=O)NC(C)(C)C)o1 please.
a: 95.4

q: Annotate the compound CCCC(=O)Nc1cc(C)c(NC(=O)c2ccccn2)cn1 with its measured viability.
a: 99.4

q: For the compound Cc1ccc(C)c(N(CC(=O)NCc2ccco2)C(=O)CCC(=O)Nc2ccccn2)c1 , give its measured viability value.
a: 68.6

q: Give the reported viability for this compound. CC(=O)Nc1ccc(S(=O)(=O)N2CCN=C2C)cc1
a: 99.4

q: Please report the measured viability for CC(=O)c1cccc(N(CC(=O)N2CCCC2)S(C)(=O)=O)c1
a: 99.7

q: Specify reported viability for the compound shown: O=C(Nc1ccc(OC(=O)c2ccco2)cc1)c1ccco1
a: 85.3

q: // Input: CC1(C)CC(=O)C2=C(C1)OC(N)=C(C#N)C2C1CC=CCC1 (centres undefined) . Output its viability only.
a: 81.6

q: Identify measured viability associated with Cc1ccc(C(C)C)c(OCCn2c(=O)oc3ccccc32)c1
a: 95.8

q: Note viability for the compound shown: CCOC(=O)C1CCCN(C(=O)c2ccc(CS(=O)(=O)Cc3ccccc3C)o2)C1 (centres undefined)
a: 96.2

q: Answer with the recorded viability of CCn1c(NCc2ccc(N(C)C)cc2)nc2ccccc21 only.
a: 97.9

q: Return viability for the following compound: O=C1CN=C(Nc2cccc(C(F)(F)F)c2)N1C1CCCC1
a: 82.5

q: For COc1cccc(NC(=O)Nc2cccs2)c1 , write its viability.
a: 79.5

q: Dear colleague, please send me the reported viability for COc1ccc(OC)c(C2C(C(=O)Nc3cccnc3)=C(C)NC3=C2C(=O)CCC3)c1 (centres undefined) when you can.
a: 98.4

q: Could you please provide reported viability for COc1ccc(C(NC(=O)C(C)(C)C)NC(=O)C(C)(C)C)cc1 ? Thanks!
a: 91.7

q: Input CSc1nc(C)cc(Oc2ccc(=O)n(C)n2)n1 , output reported viability.
a: 90.5

q: Check the records and state viability for CC(=O)c1c(C)[nH]c(C(=O)N2CCN(C(=O)c3ccco3)CC2)c1C
a: 99.1
